test: NCI Yeast Anticancer Drug Screen. Data for the mlh1 rad18 strain (AID 175); details: S. cerevisiae mlh1 rad18 strain growth inhibition; at 50.0 µM; hits give high values
About 79,000 compounds went through this panel and 15% of them were active in at least one assay; those are over-represented in the sample as a whole.
experimental.endpoint: growth inhibition (%)
Respond numerically; units are % and should not be typed.

Given the compound COc1ccccc1C1C(C(=O)Nc2ccccc2)=C(C)NC(C)=C1C(=O)Nc1ccccc1 , what is its reported growth inhibition?
-11.2

Given the compound O=C(NCC1=NCCN1)c1ccccc1 , what is its reported growth inhibition?
10.7

Given the compound N#Cc1nc(-c2cc([N+](=O)[O-])cc([N+](=O)[O-])c2)oc1N , what is its reported growth inhibition?
-8.6

Given the compound Cc1ccccc1NC(=O)NC(Oc1ccccc1)(C(F)(F)F)C(F)(F)F , what is its reported growth inhibition?
-29.1

Given the compound Cn1c([N+](=O)[O-])cnc1/C=C1\CCc2cc(OCCN3CCCC3)ccc2C1=O , what is its reported growth inhibition?
38.3

Given the compound CC12CC3C(CC1O2)C3(C)C (configuration not stated) , what is its reported growth inhibition?
-43.2

Given the compound O=C(O)c1ccccc1Sc1ccc([N+](=O)[O-])cn1 , what is its reported growth inhibition?
44.7

Given the compound Cc1ccc(CS(=O)(=O)c2ccc(C)cc2)cc1 , what is its reported growth inhibition?
-2.35

Given the compound O=C(O)CCCCC1CCSS1 (configuration not stated) , what is its reported growth inhibition?
20.9

Given the compound OC1C/C=C/CCCCC1 (configuration not stated) , what is its reported growth inhibition?
-4.4

Given the compound COc1ccccc1C1c2cc3c(cc2OC(O)(CO)C1C(=O)O)OCO3 (configuration not stated) (tested in a mixture with another compound) , what is its reported growth inhibition?
-3.15

Given the compound O=[N+]([O-])c1ccc(N=NNc2ccc(N=Nc3ccccc3)cc2)cc1 , what is its reported growth inhibition?
4.6

Given the compound CC(CC(=O)O)C(C)(C#N)C(=O)O (configuration not stated) , what is its reported growth inhibition?
-4.95

Given the compound CCN(CC)CCNC(=O)c1ccc(C)c(OCc2ccccc2)c1[N+](=O)[O-] , what is its reported growth inhibition?
-19.6

Given the compound NC(=O)C12C3C4C1C1C2C3C41C(N)=O (configuration not stated) , what is its reported growth inhibition?
20.6

Given the compound CCOC(=O)n1ccnc1 , what is its reported growth inhibition?
-2.95

Given the compound NC1C=NNC1=O (configuration not stated) , what is its reported growth inhibition?
-23.9

====

Assign growth inhibition to each entry below.
assay: NCI Yeast Anticancer Drug Screen. Data for the bub3 strain (AID 167); details: S. cerevisiae bub3 mutant strain, at 50.0 µM, hits give high values
This is part of a sample that, as a whole, favours compounds with a hit. Of some 79,000 tested, about 15% had one in any assay.
Respond numerically; units are % and should not be typed.

Given the compound CC1Cc2ccc(OCC(O)CO)cc2C1=O (stereo not given) , what is its reported growth inhibition?
-0.2

Given the compound COc1ccc(/C=C2\CCN=C2c2ccccc2)cc1OC , what is its reported growth inhibition?
4.4

Given the compound CN(C)c1ccc(S(=O)(=O)c2ccc(N(C)C)c([N+](=O)[O-])c2)cc1[N+](=O)[O-] , what is its reported growth inhibition?
3.65

Given the compound CN(C)Cc1cc(C(C)(C)CC(C)(C)C)cc(Br)c1O , what is its reported growth inhibition?
39.7

Given the compound CN1C(=O)C2CSCN2C1=S (stereo not given) , what is its reported growth inhibition?
-13.6

====

Assign growth inhibition to each entry below.
test: NCI Yeast Anticancer Drug Screen. Data for the rad50 strain (AID 155);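 further: 0% = growth of vehicle-only cultures of the same strain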; settings: S. cerevisiae rad50 strain growth inhibition; at 50.0 µM; hits give high values
The panel holds about 79,000 compounds, 15% with a hit somewhere; the sample as a whole holds those more often.
Respond numerically; units are % and should not be typed.

Given the compound O=C(O)C1CCC(=O)N1Cc1ccccc1 (stereo not given) , what is its reported growth inhibition?
1.35

Given the compound NCCC1([N+](=O)[O-])CCNCC1 , what is its reported growth inhibition?
1.9

Given the compound Cc1cc2c(cc1Cl)SC(NNc1cnc3ccccc3n1)=NS2(=O)=O , what is its reported growth inhibition?
23.3

Given the compound CCOC(=O)C(=CNc1ccc(NC2=NCC(C)S2)cc1)C(=O)OCC (stereo not given) , what is its reported growth inhibition?
-0.05

Given the compound Oc1ccccc1/C=N/c1nc(-c2ccccc2)cs1.[Co].[O-]c1ccccc1/C=N/c1nc(-c2ccccc2)cs1 , what is its reported growth inhibition?
19.2

Given the compound CN(C)c1ccc(/C=N/NC(=O)NN)cc1 , what is its reported growth inhibition?
6.2

Given the compound N#C/C(=C\c1c2ccccc2c(Cl)c2ccccc12)C(N)=S , what is its reported growth inhibition?
34.2

Given the compound C=CCCC1CC(OCC)OC(CCC=C)O1 (stereo not given) , what is its reported growth inhibition?
16.9

Given the compound COC(=O)C(C)(C#N)/C(C)=C/C(C)C (stereo not given) , what is its reported growth inhibition?
-12.7

Given the compound COc1cc(C(c2ccc3c(c2)OCO3)N2C(=O)CCC2C(=O)O)cc(OC)c1OC (stereo not given) , what is its reported growth inhibition?
-14.1

Given the compound CN(CC(=O)NC(=O)c1ccccc1)Cc1ccccc1 , what is its reported growth inhibition?
-1.7

Given the compound CC(=O)O[C@]1(C(C)=O)CC[C@H]2[C@@H]3C[C@H](C)C4=CC(=O)C=C[C@]4(C)[C@@]3(F)[C@@H](O)C[C@@]21C , what is its reported growth inhibition?
3.25

Given the compound Cc1[nH]c2ccccc2c1C(Cc1ccccc1NC(=O)CCC(=O)O)c1c[nH]c2ccccc12 (stereo not given) , what is its reported growth inhibition?
9

Given the compound CN(C)C1C(CO)C(CO)C1(C)C (stereo not given) , what is its reported growth inhibition?
-5.5

Given the compound O=C(N=C1[Se]C(=Nc2ccccc2)C(=Nc2ccccc2)N1c1ccc(Cl)cc1)c1ccccc1 , what is its reported growth inhibition?
-13.8

Given the compound CCOC(=O)CCC1CCCO1 (stereo not given) , what is its reported growth inhibition?
-3.6

Given the compound CNC(=O)OCc1nc(SC(C)C)n(C)c1COC(=O)NC , what is its reported growth inhibition?
-16

Given the compound CCCCCC/C=C\CCCCCCCCCc1cccc(OC)c1O , what is its reported growth inhibition?
18.4

Given the compound O=[N+]([O-])Cc1ccc(Cl)cc1 , what is its reported growth inhibition?
4.6

Given the compound O=C(Nc1ccc(C(F)(F)F)cc1[N+](=O)[O-])C(=O)C1NC(=S)NC1=O (stereo not given) , what is its reported growth inhibition?
30.6

====

Assign growth inhibition to each entry below.
Experiment: NCI Yeast Anticancer Drug Screen. Data for the mlh1 rad18 strain (AID 175)
Conditions: S. cerevisiae mlh1 rad18 strain growth inhibition; at 50.0 µM; hits give high values
Method: Growth inhibition of yeast strains with defined genetic alterations is measured as a screen for potential anti-cancer activity. Selected strains with alterations in DNA damage repair or cell cycle control were exposed to compounds and growth inhibition was measured relative to vehicle treated controls. The strain used in this assay is mlh1 rad18
Compounds without any hit were thinned out: in the full panel of roughly 79,000, 15% have a hit. Where a SMILES comes first, the peptide text is derived from it. The star is where a group is joined. Boc = CC(C)(C)OC(=O)*
Respond numerically; units are % and should not be typed.

Given the compound Cc1cnc(N/N=C/c2c(CO)cnc(C)c2O)s1 , what is its reported growth inhibition?
23.6

Given the compound O=C(NCCCCCCNC(=O)N1CCCCC1)c1cccnc1 , what is its reported growth inhibition?
-33.6

Given the compound CN1CCc2c1nc(-c1ccccc1)c1c2N(C)CC1 , what is its reported growth inhibition?
-1.5

Given the compound Cc1cccc(C(C#N)c2ccc(N)cc2)c1 (stereo not drawn) , what is its reported growth inhibition?
-18.4

Given the compound CC(=O)CC(=O)NN(C)C , what is its reported growth inhibition?
9.85

Given the compound S=c1ncnc2cc3[nH][nH]cc3cc12 , what is its reported growth inhibition?
-2.25

Given the compound CCCCCCCCCC(O)CO (stereo not drawn) , what is its reported growth inhibition?
-5.95

Given the compound CN(CC(=O)NC(=O)c1ccccc1)Cc1ccccc1 , what is its reported growth inhibition?
-7.8

Given the compound NCc1ccc(S(=O)(=O)Nc2cc(Br)cc(Br)c2)cc1 , what is its reported growth inhibition?
30.4

Given the compound COc1ccccc1NC(=O)Cc1nc(=O)[nH]c(=O)[nH]1 , what is its reported growth inhibition?
-9.55

Given the compound O=S1(=O)CC(N2CCCCC2)C1 , what is its reported growth inhibition?
-13.3

Given the compound CSCCC(NC(=O)C(CC(C)C)NC(=O)CNC(=O)OC(C)(C)C)C(=O)N(C)C (stereo not drawn) (Boc-Gly-Leu-Met-NMe2; configuration not given here) , what is its reported growth inhibition?
-3

Given the compound CC(=O)Nc1cc(F)c(N=Nc2ccc([N+](=O)[O-])cc2)c(F)c1 , what is its reported growth inhibition?
-10.3

Given the compound Nc1nc(C=O)c(CCc2ccccc2)c(=O)[nH]1 , what is its reported growth inhibition?
-12.4

Given the compound O=[N+]([O-])c1ccc(OS(=O)(=O)Cc2ccccc2)cc1 , what is its reported growth inhibition?
-9.25

Given the compound c1ccc(-c2nc(-c3nn[nH]n3)c3ccccc3n2)cc1 , what is its reported growth inhibition?
20.8

Given the compound CC(C)CCCC(C)C1CCC2C3CCC4=CCCCC4(C)C3CCC12C (stereo not drawn) , what is its reported growth inhibition?
50.7

Given the compound CCCCNC(C(=O)c1ccccc1)c1ccccc1 (stereo not drawn) , what is its reported growth inhibition?
26.4

Given the compound COc1cc(CNc2nc3ccccc3n2Cc2ccccc2)cc(CN2CCOCC2)c1O , what is its reported growth inhibition?
7.55

Given the compound COC(=O)c1ccc(OC)cc1O , what is its reported growth inhibition?
-2

Given the compound CCOC(CO)OCC , what is its reported growth inhibition?
-8

Given the compound O=C1NC2C1C1c3ccccc3C2C12CC2 (stereo not drawn) , what is its reported growth inhibition?
-1.85

Given the compound O=C(Nc1ccc(Br)cc1)C(=O)C(C(=O)c1ccccc1F)C1OC(=O)c2ccccc21 (stereo not drawn) , what is its reported growth inhibition?
7

Given the compound CCOC(=N)Cc1ccccc1 , what is its reported growth inhibition?
-27.9

Given the compound O=C1c2ccccc2C(=O)N1c1cccc([N+](=O)[O-])c1 , what is its reported growth inhibition?
7.05

Given the compound COc1ccc(C2N(c3ccccc3)OC(=O)N2c2ccccc2)cc1 (stereo not drawn) , what is its reported growth inhibition?
20.8

Given the compound CC1CSC(C)C(=O)N1 (stereo not drawn) , what is its reported growth inhibition?
2

Given the compound CC1CCC2(OC1)OC1CC3C4CCC5CC(O)CCC5(C)C4C(=O)C(O)C3(C)C1C2C (stereo not drawn) , what is its reported growth inhibition?
41

Given the compound O=C(O)CN(CCCCN(CC(=O)O)CC(=O)O)CC(=O)O , what is its reported growth inhibition?
-21.2

Given the compound CCN1C(=O)/C(=C\c2coc3ccccc3c2=O)SC1=S , what is its reported growth inhibition?
-0.2

Given the compound COc1cc2c(cc1OC)[C@H](C)N1CCc3cc(OC)c(OC)cc3[C@@H]1C2 , what is its reported growth inhibition?
-37

Given the compound CC(=O)NC(Cc1cccc2ccccc12)C(=O)O (stereo not drawn) , what is its reported growth inhibition?
-6.45

Given the compound CC(=O)Nc1ccc(C(=O)NN2C(=O)CSC2c2ccc(O)cc2)cc1 (stereo not drawn) , what is its reported growth inhibition?
-49.7

Given the compound O=C(COc1ccccc1)OC1CCCCC1C1CCCCC1 (stereo not drawn) , what is its reported growth inhibition?
14.2

Given the compound Cc1ccc(N2CCN(c3ccc([N+](=O)[O-])cc3)CC2)cc1Cl , what is its reported growth inhibition?
-28.3

Given the compound O=C(O)c1ccc2sc3ccccc3c(=O)c2c1 , what is its reported growth inhibition?
39

Given the compound CCOC(=O)CNC=O , what is its reported growth inhibition?
8.55

Given the compound C=CC(=O)OCCOCCOC , what is its reported growth inhibition?
-14.4
